# system_tested: T1, CD22-Fc (R&D Systems Cat. No. 1968SL) (human, UniProt P20273 20-687)
# T1 construct: Bought reagent; also called CD22 antigen; huCD22-Fc; not shown: Fc part of the bought fusion
# T1 sequence (looked up): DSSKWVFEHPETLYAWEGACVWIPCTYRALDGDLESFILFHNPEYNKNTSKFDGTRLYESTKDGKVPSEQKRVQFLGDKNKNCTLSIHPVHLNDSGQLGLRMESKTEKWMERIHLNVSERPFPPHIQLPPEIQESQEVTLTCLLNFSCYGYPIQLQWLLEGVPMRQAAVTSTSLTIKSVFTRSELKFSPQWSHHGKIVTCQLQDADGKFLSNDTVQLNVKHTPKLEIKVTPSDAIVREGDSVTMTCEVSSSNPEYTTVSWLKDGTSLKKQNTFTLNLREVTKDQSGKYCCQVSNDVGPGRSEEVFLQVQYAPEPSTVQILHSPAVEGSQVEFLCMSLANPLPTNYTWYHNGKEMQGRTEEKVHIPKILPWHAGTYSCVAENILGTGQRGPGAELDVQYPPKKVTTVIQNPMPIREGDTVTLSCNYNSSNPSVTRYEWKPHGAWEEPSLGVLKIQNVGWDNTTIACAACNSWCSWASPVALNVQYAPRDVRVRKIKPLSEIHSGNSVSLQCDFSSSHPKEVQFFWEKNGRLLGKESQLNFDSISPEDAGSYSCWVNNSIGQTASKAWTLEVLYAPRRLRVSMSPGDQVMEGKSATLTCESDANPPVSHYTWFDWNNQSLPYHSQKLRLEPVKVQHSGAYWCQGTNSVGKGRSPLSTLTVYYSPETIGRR
# protocol_description: competition ELISA on coated CD22-Fc; competitor biotinylated chimeric RFB4
Consider the following binders and their measured IC50 relative to Chimeric RFB4 IgG1 readings.

humanized RFB4 antibody VH4/VK1 (antibody, human IgG1, V domains shown) VH: EVQLVESGGGLVKPGGSLRLSCAASGFAFSIYDMSWVRQAPGKGLEWVAYISSGGGTTYYPDTVKGRFTISRDNAKNSLYLQMSSLRAEDTAMYYCARHSGYGSSYGVLFAYWGQGTLVTVSS VL: DIQMTQSPSSLSASVGDRVTITCRASQDISNYLNWYQQKPGKAVKLLIYYTSILHSGVPSRFSGSGSGTDYTLTISSLQQEDFATYFCQQGNTLPWTFGGGTKVEIK; 0.9 relative to Chimeric RFB4 IgG1

Sample humanized RFB4 antibody VH6/VK4 (antibody, human IgG1, V domains shown) VH: EVQLVESGGGLVKPGGSLKLSCAASGFAFSIYDMSWVRQAPGKGLEWVAYISSGGGTTYYPDTVKGRFTISRDNAKNSLYLQMSSLRAEDTAMYYCARHSGYGSSYGVLFAYWGQGTLVTVSS VL: DIQMTQSPSSVSASVGDRVTITCRASQDISNYLNWYQQKPGKAPKLLIYYTSILHSGVPSRFSGSGSGTDYTLTISSLQPEDFATYFCQQGNTLPWTFGGGTKVEIK ; IC50 relative to Chimeric RFB4 IgG1 observed: 1 relative to Chimeric RFB4 IgG1

humanized RFB4 antibody VH4/VK4 (antibody, human IgG1, V domains shown) VH: EVQLVESGGGLVKPGGSLRLSCAASGFAFSIYDMSWVRQAPGKGLEWVAYISSGGGTTYYPDTVKGRFTISRDNAKNSLYLQMSSLRAEDTAMYYCARHSGYGSSYGVLFAYWGQGTLVTVSS VL: DIQMTQSPSSVSASVGDRVTITCRASQDISNYLNWYQQKPGKAPKLLIYYTSILHSGVPSRFSGSGSGTDYTLTISSLQPEDFATYFCQQGNTLPWTFGGGTKVEIK has a reported IC50 relative to Chimeric RFB4 IgG1 of 1 relative to Chimeric RFB4 IgG1

humanized RFB4 antibody VH4/VK2 (antibody, human IgG1, V domains shown) VH: EVQLVESGGGLVKPGGSLRLSCAASGFAFSIYDMSWVRQAPGKGLEWVAYISSGGGTTYYPDTVKGRFTISRDNAKNSLYLQMSSLRAEDTAMYYCARHSGYGSSYGVLFAYWGQGTLVTVSS VL: DIQMTQSPSSLSASVGDRVTITCRASQDISNYLNWYQQKPGKAVKLLIYYTSILHSGVPSRFSGSGSGTDYTLTISSLQPEDFATYFCQQGNTLPWTFGGGTKVEIK yielded IC50 relative to Chimeric RFB4 IgG1 of 1.1 relative to Chimeric RFB4 IgG1
